- Assay Procedure: viability gain of MRP-1-high H69AR cells under doxorubicin, pilot screen, MRP-1 activator project, CellTiter-Glo, duplicate (AID 807);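 also: compound pretreatment 18-22 h then 72 h combined with doxorubicin; 0% = doxorubicin alone and 100% = vehicle without doxorubicin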
- Condition Description: H69AR viability with doxorubicin, CellTiter-Glo luminescence; at 10 µM; hits give high values
Measured Parameter: viability increase (%)

[
  {
    "Compound": "CCOC(=O)c1ccc(NC(=O)CCC(=O)OC)cc1",
    "Measured Parameter": "viability increase",
    "Recorded Number": -1.2
  },
  {
    "Compound": "CCc1ccc2[nH]cc(C(=O)OCCOC)c(=O)c2c1",
    "Measured Parameter": "viability increase",
    "Recorded Number": -1.15
  },
  {
    "Compound": "CCCCS(=O)(=O)/C=C\\C=C/S(=O)(=O)CCCC",
    "Measured Parameter": "viability increase",
    "Recorded Number": -7.95
  },
  {
    "Compound": "COc1ccc(-c2c(C)oc3c(CN4CCCCC4C)c(O)ccc3c2=O)cc1OC (stereo unspecified)",
    "Measured Parameter": "viability increase",
    "Recorded Number": -9.18
  },
  {
    "Compound": "CCOCCCn1cnc2c([nH]c3cc(OC)ccc32)c1=O",
    "Measured Parameter": "viability increase",
    "Recorded Number": -0.55
  },
  {
    "Compound": "COc1ccc(CSc2nnnn2Cc2ccccc2)cc1OC",
    "Measured Parameter": "viability increase",
    "Recorded Number": -0.65
  }
]
